test: Biodistribution of 99mTc complexes in rats; type: in vivo, Australian Albino Wistar Rats; conditions: rat, spleen, rats, 10 min, read-out: biodistribution spleen
Response field label: string, one of Fulfilled (tissue uptake at 10 min strictly below 0.3 %ID/g) or Not fulfilled.

>>> class_assignment("CC(C)(C)c1ccc(O)c(NC(=O)CN(CCN(CC(=O)O)CC(=O)Nc2cc(C(C)(C)C)ccc2O)CC(=O)O)c1 [Compound 4]")
"Fulfilled"
>>> class_assignment("Nc1ccc(O)c(NC(=O)CN(CCN(CC(=O)O)CC(=O)Nc2cc(N)ccc2O)CC(=O)O)c1 [Compound 5]")
"Not fulfilled"
>>> class_assignment("O=C(O)CN(CCN(CC(=O)O)CC(=O)Nc1ccccc1O)CC(=O)Nc1ccccc1O [Compound 1]")
"Fulfilled"
>>> class_assignment("O=C(O)CN(CCN(CC(=O)O)CC(=O)Nc1ccc(Cl)cc1O)CC(=O)Nc1ccc(Cl)cc1O [Compound 2]")
"Fulfilled"
>>> class_assignment("O=C(O)CN(CCN(CC(=O)O)CC(=O)Nc1cc([N+](=O)[O-])ccc1O)CC(=O)Nc1cc([N+](=O)[O-])ccc1O [Compound 3]")
"Fulfilled"
